Data provenance is patent US11192859B2.

Recorded pKd, one value per entry.
subject_of_test: ctRAGE (Homo sapiens (Human))
protocol: Kd determinations (Tables 1 and 2)
Type: binding
condition_summary: Table 2
Sequence (Q15109 23-404 limits assumed): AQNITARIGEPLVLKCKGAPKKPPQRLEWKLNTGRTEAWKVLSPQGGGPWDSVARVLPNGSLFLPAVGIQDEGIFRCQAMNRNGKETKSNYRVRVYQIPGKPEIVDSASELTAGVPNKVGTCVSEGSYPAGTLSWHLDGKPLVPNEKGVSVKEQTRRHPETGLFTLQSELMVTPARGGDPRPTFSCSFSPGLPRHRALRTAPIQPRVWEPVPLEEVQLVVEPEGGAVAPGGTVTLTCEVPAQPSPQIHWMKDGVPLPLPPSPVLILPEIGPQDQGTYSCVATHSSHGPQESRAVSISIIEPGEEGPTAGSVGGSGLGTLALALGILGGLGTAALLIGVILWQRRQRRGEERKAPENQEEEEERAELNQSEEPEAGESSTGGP
pKd: −log10 of the molar value.
property_name: pKd

- smiles_representation: "CC(=O)Nc1ccc(-c2cc(C(=O)N3CCOCC3)c3cc(Cl)ccc3n2)cn1"
  property_name: "pKd"
  measurement: 4.35
- smiles_representation: "CC(=O)Nc1ccc(-c2cc(C(=O)N3CCOCC3)c3cc(Cl)ccc3n2)nc1"
  property_name: "pKd"
  measurement: 4.47
- smiles_representation: "CC(=O)Nc1ccc(-c2cc(CN3CCOCC3)c3ccccc3n2)nc1"
  property_name: "pKd"
  measurement: 5.72
- smiles_representation: "CC(=O)Nc1ccc(-c2cc(C(=O)N3CCOCC3)c3cccc(Cl)c3n2)cn1"
  property_name: "pKd"
  measurement: 4.54

----------
Below is a list of entries, each paired with its recorded pKd value.
subject_of_test: ctRAGE (Homo sapiens (Human), UniProt Q15109)
protocol: Fluorescence binding assay (native tryptophan fluorescence titration)
condition_summary: 10 nM ctRAGE, pH 7.0, 5% DMSO; read-out: Fluorescent Binding Assay, Kd
Sequence (Q15109 364-404): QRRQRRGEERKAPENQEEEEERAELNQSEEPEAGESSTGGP
pKd: −log10 of the molar value.

- smiles_representation: "NCC(=O)Nc1ccc(-c2cc(CN3CCOCC3)c3ccccc3n2)cc1"
  pKd: 7.47
- smiles_representation: "CCCNCc1cc(-c2ccc(NC(C)=O)cc2)nc2ccccc12"
  pKd: 7.12
- smiles_representation: "CC(=O)Nc1ccc(-c2cc(CN3CCOCC3)c3ccc(F)cc3n2)cc1Cl"
  pKd: 6.77
- smiles_representation: "CC(=O)Nc1ccc(-c2cc(CN3CCOCC3)c3ccc(Cl)cc3n2)cc1"
  pKd: 7.60
- smiles_representation: "COc1ccc2c(CN3CCOCC3)cc(-c3ccc(NC(C)=O)cc3)nc2c1"
  pKd: 6.91
- smiles_representation: "COCCN(C)Cc1cc(-c2ccc(NC(C)=O)cc2)nc2ccccc12"
  pKd: 7.92
- smiles_representation: "CC(=O)Nc1ccc(-c2cc(CN3CCOCC3)c3ccccc3n2)cc1Cl"
  pKd: 7.57
- smiles_representation: "CC(=O)Nc1ccc(-c2cc(CN3CCOCC3)c3ccc(C)cc3n2)cc1"
  pKd: 8.00
- smiles_representation: "CC(=O)Nc1ccc(-c2cc(CN3CCOCC3)c3ccc(C#N)cc3n2)cc1"
  pKd: 8.52
- smiles_representation: "COCC(=O)Nc1ccc(-c2cc(CN3CCOCC3)c3ccccc3n2)cc1"
  pKd: 7.66
- smiles_representation: "CCCCN(C)Cc1cc(-c2ccc(NC(C)=O)cc2)nc2ccccc12"
  pKd: 7.80
- smiles_representation: "CNCCNCc1cc(-c2ccc(NC(C)=O)cc2)nc2ccccc12"
  pKd: 7.96
- smiles_representation: "CC(=O)Nc1ccc(-c2cc(CN3CCOCC3)c3ccc(F)cc3n2)cc1C#N"
  pKd: 7.54
- smiles_representation: "CC(=O)NCC(=O)Nc1ccc(-c2cc(CN3CCOCC3)c3ccccc3n2)cc1"
  pKd: 7.49
- smiles_representation: "CCC(=O)Nc1ccc(-c2cc(CN3CCOCC3)c3ccccc3n2)cc1"
  pKd: 7.14
- smiles_representation: "CCCN(C)Cc1cc(-c2ccc(NC(C)=O)cc2)nc2ccccc12"
  pKd: 7.25
- smiles_representation: "O=C(CO)Nc1ccc(-c2cc(CN3CCOCC3)c3ccccc3n2)cc1"
  pKd: 7.05
